Where do these numbers come from? They come from patent US10799507B2.

# testedOn: TYK2 (Homo sapiens (Human), UniProt P29597)
# Sequence (P29597 871-1187): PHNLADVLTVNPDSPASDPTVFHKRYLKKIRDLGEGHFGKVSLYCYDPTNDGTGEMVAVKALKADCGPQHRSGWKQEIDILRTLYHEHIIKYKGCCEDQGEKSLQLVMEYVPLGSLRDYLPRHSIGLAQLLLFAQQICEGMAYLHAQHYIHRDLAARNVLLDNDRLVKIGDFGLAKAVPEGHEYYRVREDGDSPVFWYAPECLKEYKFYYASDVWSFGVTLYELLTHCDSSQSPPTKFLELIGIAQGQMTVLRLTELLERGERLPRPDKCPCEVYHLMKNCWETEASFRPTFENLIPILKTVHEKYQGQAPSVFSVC
# protocolNotes: JAK kinase assay (HTRF), TYK2
# testSettings: catalytic domain, ATP at Km (13 μM)
# Procedure: Human baculovirus-expressed JAK1, 2, 3 and TYK2 were purchased from Carna Biosciences, Inc. All four purified enzymes contain only the catalytic domain. […] Inhibition of phosphorylation of a synthetic peptide was measured in an HTRF-based assay using the TK substrate-Biotin from the Cisbio HTRFKinEASE TK kit. […] The HTRF signal is read using an Envision plate reader. […]
measurementName: EC50 (nM)
Response body: numeric value in nM, unit text excluded.

Lookup result for O=C(OCC1(CO)CCC1)[C@H]1CCN(c2ncnc3[nH]ccc23)CC12CC2 ; measured EC50: 9

Lookup result for C[C@H](NC(=O)[C@H]1CCN(c2ncnc3[nH]ccc23)CC12CC2)[C@@H](O)c1ccccn1 ; measured EC50: 149

Lookup result for N#Cc1ccc(CNC(=O)C2CCN(c3ncnc4[nH]ccc34)CC23CC3)cc1 (stereo not shown) ; measured EC50: 196

Lookup result for N#C[C@H]1CC[C@H](CNC(=O)C2CCN(c3ncnc4[nH]ccc34)CC23CC3)C1 (stereo partly shown) ; measured EC50: 390

Lookup result for C[C@H](NC(=O)C1CCN(c2ncnc3[nH]ccc23)CC12CC2)c1cccc(C#N)c1 (stereo partly shown) ; measured EC50: 47.7

Lookup result for O=C(NCC1CCC1)C1CCN(c2ncnc3[nH]ccc23)CC12CC2 (stereo not shown) ; measured EC50: 364

Lookup result for N#Cc1ccc([C@H](CO)NC(=O)[C@H]2CCN(c3ncnc4[nH]ccc34)CC23CC3)nc1 ; measured EC50: 176

Lookup result for O=C(NC[C@@H](O)c1ccc(F)cc1)[C@H]1CCN(c2ncnc3[nH]ccc23)CC12CC2 ; measured EC50: 4.9

Lookup result for O=C(NCc1ccccc1)C1CCN(c2ncnc3[nH]ccc23)CC12CC2 (stereo not shown) ; measured EC50: 502

Lookup result for C[C@H](NC(=O)[C@H]1CCN(c2ncnc3[nH]ccc23)CC12CC2)[C@@H](O)c1cccnc1 ; measured EC50: 184

Lookup result for O=C(NCC1CCCC1)C1CCN(c2ncnc3[nH]ccc23)CC12CC2 (stereo not shown) ; measured EC50: 400

Lookup result for O=C(NC[C@@H](O)C1CCCCC1)[C@H]1CCN(c2ncnc3[nH]ccc23)CC12CC2 ; measured EC50: 4

Lookup result for O=C(NCc1ccncc1)C1CCN(c2ncnc3[nH]ccc23)CC12CC2 (stereo not shown) ; measured EC50: 798

Lookup result for C[C@H](NC(=O)[C@H]1CCN(c2ncnc3[nH]ccc23)CC12CC2)[C@@H](O)c1ccc(F)cc1 ; measured EC50: 7

Lookup result for N#Cc1ccc(CNC(=O)[C@@H]2CCN(c3ncnc4[nH]ccc34)CC23CC3)cc1 ; measured EC50: 5740

Lookup result for CCc1cc(C#N)ccc1[C@H](CO)NC(=O)[C@H]1CCN(c2ncnc3[nH]ccc23)CC12CC2 ; measured EC50: 284
